Entries and their measured pIC50 follow.
target_of_assay: FP receptor (Homo sapiens (Human))
Sequence (P43088 whole entry): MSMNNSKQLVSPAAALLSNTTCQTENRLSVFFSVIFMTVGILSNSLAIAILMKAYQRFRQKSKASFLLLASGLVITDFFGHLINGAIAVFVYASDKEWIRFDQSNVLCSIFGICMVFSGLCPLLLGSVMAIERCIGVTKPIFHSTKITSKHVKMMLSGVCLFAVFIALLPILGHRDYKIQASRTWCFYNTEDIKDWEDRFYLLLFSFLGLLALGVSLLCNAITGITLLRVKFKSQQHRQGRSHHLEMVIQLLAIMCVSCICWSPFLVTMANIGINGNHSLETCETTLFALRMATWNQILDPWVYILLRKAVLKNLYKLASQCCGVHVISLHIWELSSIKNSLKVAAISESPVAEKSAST
assay_name: In vitro test of inhibition of human FP receptor activity (PGF2α-induced calcium flux in FP-expressing CHEM1 cells)
test_settings: PGF2α 2 nM, some mean values of multiple determinations
pIC50: −log10 of the molar value.

compound: Cc1c(N2CCSCC2)nc2ccc(Br)cc2c1C(=O)NCC(CCC(=O)O)c1ccccc1Cl (racemic) [Example 25]
target_of_assay: FP receptor (Homo sapiens (Human))
pIC50: 7.66

compound: Cc1c(N2CC[C@@H](F)C2)nc2ccc(Br)cc2c1C(=O)NCC(CCC(=O)O)c1ccccc1Cl (some centres unmarked) [Example 66]
target_of_assay: FP receptor (Homo sapiens (Human))
pIC50: 7.92

compound: Cc1c(N2CCCCO2)nc2ccc(Br)cc2c1C(=O)NCC(CCC(=O)O)c1ccccc1Cl (racemic)
target_of_assay: FP receptor (Homo sapiens (Human))
pIC50: 7.32

compound: CCC1CCCN(c2nc3ccc(Br)cc3c(C(=O)NCC(CCC(=O)O)c3ccccc3OC(F)(F)F)c2C)C1 (single isomer, unassigned; (+)) [Example 205]
target_of_assay: FP receptor (Homo sapiens (Human))
pIC50: 9.39

compound: Cc1c(N2CCCCCC2)nc2ccc(Br)cc2c1C(=O)NCC(CCC(=O)O)c1ccccc1OC(F)(F)F (single isomer, unassigned; (-)) [Example 136]
target_of_assay: FP receptor (Homo sapiens (Human))
pIC50: 8.96

compound: Cc1c(N2CCCC(C)(C)C2)nc2ccc(Br)cc2c1C(=O)NCC(CCC(=O)O)c1ccccc1Cl (single isomer, unassigned; (-)) [Example 43]
target_of_assay: FP receptor (Homo sapiens (Human))
pIC50: 7.05

compound: Cc1c(N2CCCCC2)nc2ccc(Br)cc2c1C(=O)NCC(CC(=O)O)c1c(F)cccc1Cl (single isomer, unassigned; (-)) [Example 2]
target_of_assay: FP receptor (Homo sapiens (Human))
pIC50: 7.64

compound: Cc1c(N2CCCC(C)C2)nc2ccc(Br)cc2c1C(=O)NCC(CCC(=O)O)c1ccccc1C(F)(F)F (single isomer, unassigned; (+)) [Example 198]
target_of_assay: FP receptor (Homo sapiens (Human))
pIC50: 8.43

compound: Cc1ccc(F)cc1C(CCC(=O)O)CNC(=O)c1c(C)c(N2CCCC(F)(F)C2)nc2ccc(Br)cc12 (single isomer, unassigned; (+)) [Example 214]
target_of_assay: FP receptor (Homo sapiens (Human))
pIC50: 7.68

compound: Cc1c(NCCC(F)(F)F)nc2ccc(Br)cc2c1C(=O)NCC(CCC(=O)O)c1ccccc1Cl (racemic)
target_of_assay: FP receptor (Homo sapiens (Human))
pIC50: 6.28

compound: Cc1c(N2C[C@@H](F)[C@@H](F)C2)nc2ccc(Br)cc2c1C(=O)NCC(CCC(=O)O)c1ccccc1Cl (mixture of isomers)
target_of_assay: FP receptor (Homo sapiens (Human))
pIC50: 7.80

compound: Cc1c(N2CCCC(F)(F)C2)nc2ccc(Br)cc2c1C(=O)NCC(CCC(=O)O)c1c(F)cccc1C(F)(F)F (single isomer, unassigned; (+)) [Example 168]
target_of_assay: FP receptor (Homo sapiens (Human))
pIC50: 7.05

compound: Cc1c(N2CCCC2)nc2ccc(Br)cc2c1C(=O)NCC(CCC(=O)O)c1c(F)cccc1F (single isomer, unassigned; (-)) [Example 249]
target_of_assay: FP receptor (Homo sapiens (Human))
pIC50: 8.03

compound: Cc1c(N2CCCCC2)nc2ccc(Br)cc2c1C(=O)NCC(CCC(=O)O)c1c(F)cccc1OC(F)F (single isomer, unassigned; (+)) [Example 184]
target_of_assay: FP receptor (Homo sapiens (Human))
pIC50: 7.89
